B1: HDV Ribozyme (parent)
chain: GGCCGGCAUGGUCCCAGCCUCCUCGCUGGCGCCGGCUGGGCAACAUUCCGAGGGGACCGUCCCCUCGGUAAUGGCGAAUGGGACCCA

- Variants of: B1
- Assay method text: self-cleavage, relative activity (ratio to wild type); higher = more cleavage; co-transcriptional
Parameter self-cleavage: see the listing below.
I'd appreciate a reply containing only the number, no unit.

Entry GGCCGGCAUGGUCCCAGCCUCCUCGCUAGCGCGGGCUGGGCAACAUUCCGAGGGGACCGUCCCCUCGGUAAUGGCGAAUGGGACCCA [G28A C33G] : reported self-cleavage = ?
0.149

Now the variant GGCGGGCAUGGUCCCAGCCUCCUCGCUGGCGCCGGCUGGGCAACAUUCCGAGGGAACCGUCCCCUCGGUAAUGGCGAAUGGGACCCA [C4G G55A]
0.305

Queued: GGCCGGCAUGGUCCCAGCCUCCUCGCUGGCGCCGGCUGGGCAACAUUCCGAGGGGACCGUCCCAUUGGUAAUGGCGAAUGGGACCCA [C64A C66U]
0.567

GGCCGGCAUGGUCCCAGCCUCCUCGCUGGCGCCGGCUGGGCAACAUUCCGAGGGGACCGUCCCCUCGGUAAAGGCGAAUGGGAGCCA [U72A C84G] , same question.
0.213

Note, next up: GGCCGCCAUGGUCCCAGCCUCCUCGCUGGCGCCGGCUGGGCAACAUUCCGAGGGGACCGUCCCCUCGGAAAUGGCGAAUGGGACCCA [G6C U69A]
0.208

The reported measurements were obtained from the RNAGym collection of RNA variant scans (doi:10.7554/elife.80360).
